Attribution: the NIST ThermoML archive (doi:10.1021/acs.jced.9b00776)

# runConditions: 298.15 K; 100.9 kPa; Liquid; Vibrating tube method
readoutType: mass density (kg/m3)
// note: answer is a bare numeric in kg/m3

Recorded results for 3 compounds are shown here.
> print(dat)
                          chemicalstructure  valuemeasured
1  CC(C)[n+]1ccn(C)c1.O=S(=O)([N-]S(=O)(=O)C(F)(F)F)C(F)(F)F         1476.8
2  C[n+]1ccn(C(C)(C)C)c1.O=S(=O)([N-]S(=O)(=O)C(F)(F)C(F)(F)F)C(F)(F)C(F)(F)F         1525.2
3  CC(C)n1cc[n+](C)c1.O=S(=O)([N-]S(=O)(=O)C(F)(F)C(F)(F)F)C(F)(F)C(F)(F)F         1551.3

Please examine the following record next.
Q. Let me know recorded mass density for C[n+]1ccn(C(C)(C)C)c1.O=S(=O)([N-]S(=O)(=O)C(F)(F)F)C(F)(F)F , thanks.
A. 1446.6

###

# runConditions: 313.2 K; 100.9 kPa; Liquid; Cone and plate viscometry
readoutType: viscosity (mPa·s)
Report the figure in mPa·s without appending any unit label.

> print(dat)
                          chemicalstructure  readouttype  valuemeasured
1  C[n+]1ccn(C(C)(C)C)c1.O=S(=O)([N-]S(=O)(=O)C(F)(F)C(F)(F)F)C(F)(F)C(F)(F)F    viscosity          126.1
2  CC(C)n1cc[n+](C)c1.O=S(=O)([N-]S(=O)(=O)C(F)(F)C(F)(F)F)C(F)(F)C(F)(F)F    viscosity             53
3  C[n+]1ccn(C(C)(C)C)c1.O=S(=O)([N-]S(=O)(=O)C(F)(F)F)C(F)(F)F    viscosity           55.6

Attention now turns to another entry.
Q. Name the recorded viscosity of the item CC(C)[n+]1ccn(C)c1.O=S(=O)([N-]S(=O)(=O)C(F)(F)F)C(F)(F)F in your answer.
A. 24.5

###

# runConditions: 353.15 K; 100.9 kPa; Liquid; Vibrating tube method
readoutType: mass density (kg/m3)
Your answer should be a plain number; it is taken to be in kg/m3.

Consider the reported mass density for these compounds:
> print(dat)
                          chemicalstructure  valuemeasured
1  CC(C)[n+]1ccn(C)c1.O=S(=O)([N-]S(=O)(=O)C(F)(F)F)C(F)(F)F         1423.7
2  C[n+]1ccn(C(C)(C)C)c1.O=S(=O)([N-]S(=O)(=O)C(F)(F)F)C(F)(F)F           1395
3  CC(C)n1cc[n+](C)c1.O=S(=O)([N-]S(=O)(=O)C(F)(F)C(F)(F)F)C(F)(F)C(F)(F)F         1492.8

Field: next compound
Q. Please look at this compound and report its mass density: C[n+]1ccn(C(C)(C)C)c1.O=S(=O)([N-]S(=O)(=O)C(F)(F)C(F)(F)F)C(F)(F)C(F)(F)F
A. 1467.8

###

# runConditions: 323.15 K; 100.9 kPa; Liquid; Vibrating tube method
Numbers after ± are expanded uncertainties.
Entries and their measured mass density follow.
Express the reported value numerically, then name its unit.

// solved cases for mass density follow
> print(dat)
                          chemicalstructure     valuemeasured
1  CC(C)[n+]1ccn(C)c1.O=S(=O)([N-]S(=O)(=O)C(F)(F)F)C(F)(F)F  1452.4 ± 2 kg/m3
2  CC(C)n1cc[n+](C)c1.O=S(=O)([N-]S(=O)(=O)C(F)(F)C(F)(F)F)C(F)(F)C(F)(F)F  1524.6 ± 2 kg/m3

Q. Quote mass density reported for C[n+]1ccn(C(C)(C)C)c1.O=S(=O)([N-]S(=O)(=O)C(F)(F)C(F)(F)F)C(F)(F)C(F)(F)F please.
A. 1498.9 ± 2 kg/m3

Q. Report mass density for C[n+]1ccn(C(C)(C)C)c1.O=S(=O)([N-]S(=O)(=O)C(F)(F)F)C(F)(F)F
A. 1423.1 ± 2 kg/m3
